Tested on: tobacco mosaic virus (TMV)
TEST PROTOCOL: Anti-TMV protective activity (protection mode), live friction inoculation on tobacco seedlings
Format: in vivo
EXPERIMENTAL PARAMETERS: Tobacco mosaic virus, read-out: Anti-TMV activity, Protection effect (inhibition)
EXPERIMENTAL READOUT: inhibition at 100 µg/mL (%)
Return type: number; implicit unit %.

INPUT: Fill in the blank: the reported inhibition at 100 µg/mL of CNC(=O)/C(=C/c1csc(C2CCN(C(=O)OC(C)(C)C)CC2)n1)NC(=O)c1ccccc1 [Compound 41] is ____.
OUTPUT: 30

INPUT: Fill in the blank: the reported inhibition at 100 µg/mL of Cc1ccc(/C=C(\NC(=O)c2ccccc2)C(=O)N2CCC(O)(c3ccc(Br)cc3)CC2)cc1 [Compound 15] is ____.
OUTPUT: 0

INPUT: Fill in the blank: the reported inhibition at 100 µg/mL of O=C(NC(Cc1ccccc1)C(=O)N1CCC(O)(c2ccc(Br)cc2)CC1)C1CCCCC1 (stereo not shown) [Compound 50] is ____.
OUTPUT: 47

INPUT: Fill in the blank: the reported inhibition at 100 µg/mL of CC(C)(C)OC(=O)N1CCC(c2nc(C(=O)NCC(=O)O)cs2)CC1 [Compound 65] is ____.
OUTPUT: 39

INPUT: Fill in the blank: the reported inhibition at 100 µg/mL of CNCC(=O)N[C@@H](CO)C(=O)N[C@H]1[C@H](O)[C@@H](O)[C@H](n2ccc(N)nc2=O)O[C@@H]1C(N)=O [Ningnanmycin, ningnanmycin, reference compound] is ____.
OUTPUT: 71

INPUT: Fill in the blank: the reported inhibition at 100 µg/mL of O=C(O)/C(=C/c1ccccc1)NC(=O)C1CC1 [Compound 67] is ____.
OUTPUT: 78

INPUT: Fill in the blank: the reported inhibition at 100 µg/mL of O=C(N/C(=C\c1ccccc1)C(=O)N1CCC(O)(c2ccc(Br)cc2)CC1)c1ccc(F)cc1 [Compound 6] is ____.
OUTPUT: 45

====

Test system: wheat Gibberella zeae
TEST PROTOCOL: microbe, parasite or virus in culture
Type: cell-based
EXPERIMENTAL PARAMETERS: Fusarium graminearum, read-out: Fungicidal activity, inhibition, GZ
EXPERIMENTAL READOUT: inhibition at 50 µg/mL (%)
Return type: number; implicit unit %.

INPUT: Fill in the blank: the reported inhibition at 50 µg/mL of O=C(NC(Cc1ccccc1)C(=O)N1CCC(c2ccccc2)CC1)c1ccccc1 (stereo not shown) [Compound 48] is ____.
OUTPUT: 11

INPUT: Fill in the blank: the reported inhibition at 50 µg/mL of CC(C)(C)OC(=O)N1CCC(c2nc(/C=C(\NC(=O)c3ccccc3)C(=O)N3CCC(O)(c4ccc(Br)cc4)CC3)cs2)CC1 [Compound 29] is ____.
OUTPUT: 3

INPUT: Fill in the blank: the reported inhibition at 50 µg/mL of O=C(N/C(=C\c1ccccc1)C(=O)N1CCC(O)(c2ccc(Br)cc2)CC1)c1cccc([N+](=O)[O-])c1 [Compound 11] is ____.
OUTPUT: 34

INPUT: Fill in the blank: the reported inhibition at 50 µg/mL of CC(C)(C)OC(=O)N1CCC(c2nc(/C=C(\NC(=O)c3ccccc3)C(=O)NCC(F)F)cs2)CC1 [Compound 43] is ____.
OUTPUT: 36
